- Test system: Sam68 (KHDRBS1)
- protocolDetails: Sam68 small-molecule binders, primary screen, biochemical, small-molecule microarray, 635 nm fluorescence (AID 1125);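 further: score merges 667 nm channel intensity with signal to noise over triplicate slides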
- assayContext: small-molecule microarray binding, higher = more signal
# binning rule on composite z-score: bottom bin: < -0.03; middle bin: ≥ -0.03 and < 1; top bin: ≥ 1

>>> print(df.to_string())
                                    molecule  classlabel
 0  CCOC(=O)CCN1C(=O)[C@H]2[C@H]3[C@H](O)[C@H](O)CC(=NOC[C@@H](O)COCc4ccco4)[C@@H]3CC[C@H]2C1=O  middle bin
 1  COc1ccc(O[C@H]2C=C[C@@H](c3ccccc3)O[C@@H]2COC(=O)CCC(C)=NOCC[C@@H]2C=C[C@H](OC(C)=O)[C@@H](COC(C)=O)O2)cc1  bottom bin
 2  Cc1ccc(S(=O)(=O)N[C@@H]2COC(=O)[C@H](C)COC(=O)CC=C[C@H]2C)cc1  middle bin
 3  COc1ccc(OC[C@H]2Cc3c(-c4ccccc4)nc4c(c3CO2)CN(CCOc2ccccc2)CC4)cc1     top bin
 4  C=CC[C@@H]1C=C[C@H](ON=C2c3cc(OC)ccc3O[C@H](c3cccc(OC)c3)[C@H]2O)[C@@H](CO)O1  bottom bin
 5  CC(CCN1CCc2nc(-c3ccccc3)c(-c3ccccc3)cc2C1)=NOC(C)CN1CCCCc2nc(C)c(C)cc21 (stereo not given)     top bin
 6  O=C1[C@H]2[C@H]3[C@H](O)[C@H](O)CC(=NO[C@@H]4O[C@H](CO)[C@@H](O)[C@H](O)[C@H]4O)[C@@H]3CC[C@H]2C(=O)N1c1ccc(F)cc1F  middle bin
 7  CN(C)CCCNC(=O)[C@@H]1c2ccccc2C(=O)N(Cc2ccccc2)[C@H]1c1ccc(CO)cc1  middle bin
 8  COC(=O)C1=CCC(c2cccc(Cl)c2)O1 (stereo not given)  middle bin
 9  CC(=O)OC[C@H]1O[C@@H](ON=C[C@@H](C)[C@H](OCc2ccccc2)C(C)C)[C@H](OC(C)=O)[C@@H](OC(C)=O)[C@@H]1OC(C)=O  middle bin
10  CC(C)=CCCC(C)=CCON=C1[C@H]2CCn3c(=O)n(Cc4cc5c(cc4Cl)OCO5)c(=O)n3[C@H]2[C@H](O)[C@@H]2O[C@H]12  bottom bin
11  O=C(CS)NCCCCCNC(=O)[C@H]1C[C@H]2C(=O)N3CCC[C@H]3C(=O)N2[C@H]1c1cccc(OCCO)c1     top bin
12  CC(C)N1CC=CC23O[C@@H]4C=CCCOC(=O)C4[C@H]2C(=O)N(CCCCCCO)[C@@H]3C1=O (stereo not given in full)  bottom bin
13  [N-]=[N+]=NCc1ccccc1[C@@H]1OC(c2ccc(OCCCO)cc2)=N[C@]1(Cc1ccccc1)C(=O)N1CCOCC1     top bin

---

- systemName: Homeobox protein Hox-A13 (Mus musculus) (UniProt Q62424)
- Sequence (Q62424 whole entry, looked up): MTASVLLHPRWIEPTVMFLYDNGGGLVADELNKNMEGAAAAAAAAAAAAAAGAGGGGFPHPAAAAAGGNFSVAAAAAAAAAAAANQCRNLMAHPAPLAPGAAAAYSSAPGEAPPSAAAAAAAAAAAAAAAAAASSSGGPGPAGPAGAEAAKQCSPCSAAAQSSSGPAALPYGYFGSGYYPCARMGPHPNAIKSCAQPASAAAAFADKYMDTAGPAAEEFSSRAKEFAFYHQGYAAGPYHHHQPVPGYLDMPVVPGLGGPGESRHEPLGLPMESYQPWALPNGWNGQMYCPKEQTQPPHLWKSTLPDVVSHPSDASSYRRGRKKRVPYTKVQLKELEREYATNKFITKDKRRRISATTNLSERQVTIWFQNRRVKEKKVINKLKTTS
- protocolDetails: inhibitors of HoxA13-DNA binding, primary screen, biochemical, fluorescence polarization, labeled oligonucleotide (AID 1185)
- assayContext: 15 min, higher = more signal, called active from +8 up or from −8 down
measuredEndpoint: z-score

In [3]: df
Out[3]:
                    compoundstructurestring  endpointresult
0  C=CCN1C(=O)[C@]2(O[C@H](CCn3cc(CCO)nn3)[C@@H]([Si](C)(C)c3ccc(OC)cc3)[C@@H]2C)c2cc(N3CCOC3=O)ccc21           -5.66
1  CC(C)[Si]1(C(C)C)O[C@@H](c2ccccc2)c2cc(C3CC3)nc(-c3ccccc3)c21           -1.21
2  C[C@@H]1C=CCC(=O)OC[C@H](C)C(=O)OC[C@H]2O[C@H]1C=C[C@H]2O           -1.13
3  CCc1cc2c(nc1CC)CCN(CCC(C)=NOC[C@@H](O)COCc1ccco1)C2           -6.02

---

- protocolDetails: small-molecule microarray binders of probe aNog, primary screen, biochemical, biotinylated probe, 635/667 nm fluorescence (AID 1115);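 further: probe is biotinylated aNog protein used at 0.15 µg/mL for 1 h at 4 C; z-score combines 667 nm fluorescence of each spot with its signal to noise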
- assayContext: higher = more signal
# binning rule on composite z-score: bucket 1 = under -0.1, bucket 2 = from -0.1 up to 0.1, bucket 3 = 0.1 and over

molecule	classLabel
COc1ccc(O[C@H]2C=C[C@@H](c3ccccc3)O[C@@H]2COC(=O)CCC(C)=NO[C@@H](C)c2cc(-c3c(C)cc(C)cc3C)no2)cc1	bucket 2
CCOC(=O)CCN1C(=O)[C@H]2[C@H]3[C@H](O)[C@H](O)CC(=NOC[C@@H](O)COCc4ccco4)[C@@H]3CC[C@H]2C1=O	bucket 2
CC(C)NC(=O)[C@@]1(c2ccc([N+](=O)[O-])cc2)CC(=O)N(CC23CC4CC(CC(C4)C2)C3)[C@@H]1c1ccc(CO)cc1I	bucket 1
CN1C(=O)[C@@]2(CCC(=O)OC(C)(C)C)N=C(c3ccc(OCCCO)cc3)O[C@H]2c2ccccc21	bucket 1
NCCCCCNC(=O)[C@@H]1C[C@@H]2C(=O)N3CCC[C@H]3C(=O)N2[C@@H]1c1cccc(OCCO)c1	bucket 3
COC(=O)[C@@]1(Cc2ccccc2)[C@H]2c3cc(C(=O)N4CCCC4)n(Cc4ccccn4)c3C[C@H]2CN1C(=O)c1ccccc1	bucket 3
COC(=O)[C@@]1(Cc2ccc(F)cc2)[C@H]2c3cc(C(=O)N(C)C)n(Cc4ccc(OC)c(OC)c4)c3C[C@H]2CN1C(=O)c1ccccc1	bucket 3
[N-]=[N+]=NCc1ccccc1C[C@]1(C(=O)NCc2ccccc2)N=C(c2ccc(OCCCO)cc2)O[C@H]1c1ccccc1N=[N+]=[N-]	bucket 1
CCCC=C(CCC)[C@@H](NC(=O)c1ccc(-c2ccccc2)cc1)c1ccc(C(=O)OC)cc1	bucket 3
CO[C@H]1COC(=O)[C@@H]2CCCN2C(=O)CC=C[C@@H](C)[C@H](OC)COC(=O)CC=C[C@@H]1C	bucket 1
COc1ccc(O[C@H]2C=C[C@@H](c3ccccc3)O[C@@H]2COC(=O)CCC(C)=NOC[C@@H](C)[C@H](OCc2ccccc2)C(C)C)cc1	bucket 1
CCN1C(=O)[C@H]2[C@H]3[C@H](O)[C@H](O)CC(=NOC[C@@H](C)[C@H](OCc4ccccc4)C(C)C)[C@@H]3CC[C@H]2C1=O	bucket 3
NC(=O)NCC#Cc1ccc2c(c1)[C@]1(C(=O)N2)[C@H](c2ccc(O)cc2)N2[C@H](c3ccccc3)[C@H](c3ccccc3)OC(=O)[C@H]2[C@@H]1C(=O)N1CCCCCCC1	bucket 1
COC(=O)[C@@H]1N=C(c2ccc(OCCCO)cc2)O[C@@H]1c1ccccc1N=[N+]=[N-]	bucket 3
COc1ccc([Si](C)(C)[C@@H]2[C@@H](CC(=O)N3CCC[C@H]3CO)O[C@]3(C(=O)N(Cc4cccc(N5CCC5=O)c4)c4ccccc43)[C@H]2C)cc1	bucket 3
O=C1[C@H]2[C@H]3[C@H](O)[C@H](O)CC(=NO[C@@H]4O[C@H](CO)[C@@H](O)[C@H](O)[C@H]4O)[C@H]3CC[C@H]2C(=O)N1Cc1ccccc1	bucket 3
COCCCNC(=O)[C@@]1(CCS(=O)(=O)c2ccccc2)N=C(c2ccc(OCCCO)cc2)O[C@H]1c1ccccc1	bucket 3
O=C1[C@H]2[C@H]3[C@H](O)[C@H](O)CC(=NOCc4ccccc4)[C@@H]3CC[C@H]2C(=O)N1C1CCCCC1	bucket 1
C[C@H]1Cc2c(-c3ccccc3)nc3c(c2CO1)CN(CCOc1ccccc1)CC3	bucket 2
CCOC(=O)[C@H](Cc1ccccc1)NC(=O)CCC1CC(OC(=O)NCc2ccc3c(c2)OCO3)CC2(CCCC(COC(=O)NCc3cccc(C(F)(F)F)c3)O2)O1 (stereo partly drawn)	bucket 3
Cn1c(=O)n2n(c1=O)[C@H]1[C@H](O)[C@@H]3O[C@@H]3C(=NOC[C@@H](O)COCc3ccco3)[C@H]1CC2	bucket 3
O=C(NN=C1C[C@@H](O)[C@@H](O)[C@@H]2[C@@H]3C(=O)N(c4cccc(Oc5ccccc5)c4)C(=O)[C@@H]3CC[C@H]12)OCc1ccccc1	bucket 3
C=C(/C(=C/C[C@H](OC(=O)c1ccncc1)c1ccc(OCCO)cc1)c1cnc2ccccc2c1)C(C)C	bucket 1
CCOC(=O)CCN1C(=O)[C@H]2[C@H]3[C@H](O)[C@H](O)CC(=NNC(=O)OCc4ccc(OC)cc4)[C@@H]3CC[C@H]2C1=O	bucket 1
CC(C)CON=C1C[C@@H](O)[C@@H](O)[C@@H]2[C@@H]3C(=O)N([C@@H](C)c4ccccc4)C(=O)[C@@H]3CC[C@H]12	bucket 2
CC(C)CON=C1C[C@@H](O)[C@@H](O)[C@@H]2[C@@H]3C(=O)N(C[C@@H]4CCCO4)C(=O)[C@@H]3CC[C@H]12	bucket 2
CO[C@H]([C@@H](C)[C@H](OC)c1ccccc1)[C@H](C)[C@@H](OC)[C@H](C)C(C)=O	bucket 2
C#C[C@@H](CC)O[Si](C#Cc1ccc(Oc2ccccc2)cc1)(C(C)C)C(C)C	bucket 1
